# experimental_system: AAV9 viral particles (adeno-associated virus 9)
# protocol_details: SPR (Biacore), polypeptide amine-coupled to CM5, AAV9 analyte; response normalized to SEQ ID NO:80
Assignment: determine reported Normalized AAV9 binding capacity (%) for the given binders.

// returns reported Normalized AAV9 binding capacity (%) for input vh279 (SEQ ID NO:131) (VHH) VHH: QVQLQQSGGGSVQAGGSLRLSCTISGRTLSDYTMGWFRQRPGKEREFVAAISWSGAYTKYADSVKGRFTISRDNAKNTVFLQMNSLKPEDTAVYYCAAGPTGLLSKKATPADYDYWGQGTQVTVSS
98%

If you can, please state the reported Normalized AAV9 binding capacity (%) value of Nb277 (SEQ ID NO:129) (VHH) VHH: QVQLQQSGGGSVQAGGSLRLSCTISGRTLSDYTMGWFRQRPGKEREFVAAISWSGAYTKYADSVKGRFTISRDNAKNTVVLQMNSLKPEDTAVYYCAAGPTGLLSKKATPADYDYWGQGTQVTVSS .
80%

Sample vh331 (SEQ ID NO:140) (VHH) VHH: QVQLQQSGGGSVQAGGSLRLSCTISGRTLSDYTMGWFRQRPGKEREFVAAISWSGAYTKYADSVKGRFTISRDNAKNTVYLQMNSLKPEDTALYYCAAGPTGLLSKKATPADYDYWGQGTQVTVSS — what was its Normalized AAV9 binding capacity (%)?
109%

Which Normalized AAV9 binding capacity (%) is reported for this binder? vh270 (SEQ ID NO:121) (VHH) VHH: QVQLQQSGGGSVQAGGSLRLSCTISGRTLSDYTMGWFRQRPGKEREFVAAISWSGAYTKYSDSVKGRFTISRDNAKNTVYLQMNSLKPEDTAVYYCAAGPTGLLSKKATPADYDYWGQGTQVTVSS
103%

Normalized AAV9 binding capacity (%) for vh118 (SEQ ID NO:80), Example 3 construct (VHH) VHH: QVQLQQSGGGSVQAGGSLRLSCTISGRTLSDYTMGWFRQRPGKEREFVAAISWSGAYTKYADSVKGRFTISRDNAKNTVYLQMNSLKPEDTAVYYCAAGPTGLLSKKATPADYDYWGQGTQVTVSS ?
100%

Record request: Normalized AAV9 binding capacity (%) value, item Nb274 (SEQ ID NO:125) (VHH) VHH: QVQLQQSGGGSVQAGGSLRLSCTISGRTLSDYTMGWFRQRPGKEREFVAAISWSGAYTKYADSVKGRFTISRDNAKETVYLQMNSLKPEDTAVYYCAAGPTGLLSKKATPADYDYWGQGTQVTVSS
91%

For vh345 (SEQ ID NO:104) (VHH) VHH: QVQLQQSGGGSVQAGGSLRLSCTISGRTLSDYTMGWFRQAPGKEREFVAAISWSGAYTKYADSVKGRFTISRDNAKNTVYLQMNSLKPEDTAIYYCAAGPTGLLSKKATPADYDYWGQGTQVTVSS , what is its reported Normalized AAV9 binding capacity (%)?
101%

Which Normalized AAV9 binding capacity (%) reading was recorded for the binder vh286 (SEQ ID NO:139) (VHH) VHH: QVQLQQSGGGSVQAGGSLRLSCTISGRTLSDYTMGWFRQRPGKEREFVAAISWSGAYTKYADSVKGRFTISRDNAKNTVYLQMNSLKPEDTAIYYCAAGPTGLLSKKATPADYDYWGQGTQVTVSS ?
112%

What Normalized AAV9 binding capacity (%) value was documented for this binder, vh344 (SEQ ID NO:98) (VHH) VHH: QVQLQQSGGGSVQAGGSLRLSCAISGRTLSDYTMGWFRQRPGKEREFVAAISWSGAYTKYADSVKGRFTISRDNAKNTVYLQMNSLKPEDTAIYYCAAGPTGLLSKKATPADYDYWGQGTQVTVSS ?
100%

Give the measured Normalized AAV9 binding capacity (%) of vh281 (SEQ ID NO:134) (VHH) VHH: QVQLQQSGGGSVQAGGSLRLSCTISGRTLSDYTMGWFRQRPGKEREFVAAISWSGAYTKYADSVKGRFTISRDNAKNTVYLQMNTLKPEDTAVYYCAAGPTGLLSKKATPADYDYWGQGTQVTVSS .
103%

Need Normalized AAV9 binding capacity (%) of Nb273 (SEQ ID NO:124) (VHH) VHH: QVQLQQSGGGSVQAGGSLRLSCTISGRTLSDYTMGWFRQRPGKEREFVAAISWSGAYTKYADSVKGRFTISRDNAKSTVYLQMNSLKPEDTAVYYCAAGPTGLLSKKATPADYDYWGQGTQVTVSS , thanks.
82%

// Normalized AAV9 binding capacity (%) lookup, key: vh346 (SEQ ID NO:114) (VHH) VHH: QVQLQQSGGGSVQAGGSLRLSCTISGRTLSDYTMGWFRQRPGKERELVAAISWSGAYTKYADSVKGRFTISRDNAKNTVYLQMNSLKPEDTAIYYCAAGPTGLLSKKATPADYDYWGQGTQVTVSS
100%

For the binder vh327 (SEQ ID NO:118) (VHH) VHH: QVQLQQSGGGSVQAGGSLRLSCTISGRTLSDYTMGWFRQRPGKEREFVAAISWSGAYTKYNDSVKGRFTISRDNAKNTVYLQMNSLKPEDTAVYYCAAGPTGLLSKKATPADYDYWGQGTQVTVSS , what Normalized AAV9 binding capacity (%) is on record?
109%

Please give the measured Normalized AAV9 binding capacity (%) for this binder: vh271 (SEQ ID NO:122) (VHH) VHH: QVQLQQSGGGSVQAGGSLRLSCTISGRTLSDYTMGWFRQRPGKEREFVAAISWSGAYTKYVDSVKGRFTISRDNAKNTVYLQMNSLKPEDTAVYYCAAGPTGLLSKKATPADYDYWGQGTQVTVSS
105%

Quick one: Normalized AAV9 binding capacity (%) for vh278 (SEQ ID NO:130) (VHH) VHH: QVQLQQSGGGSVQAGGSLRLSCTISGRTLSDYTMGWFRQRPGKEREFVAAISWSGAYTKYADSVKGRFTISRDNAKNTVALQMNSLKPEDTAVYYCAAGPTGLLSKKATPADYDYWGQGTQVTVSS ?
99%
